test: Plasma pharmacokinetics after oral administration in mice; conditions: male, ICR, mouse, plasma, po, 6 mg/kg
RECORDED METRIC: Cmax
Lab note: write values as number then unit, every time.

Query: Fill in Cmax for record COc1ccc2c3c(c4cc(OC)c(OC)cc4c2c1)CN1CCC[C@H]1C3.O=C(O)/C=C\C(=O)O [Maleate, (+)-13a-(S)-deoxytylophorinine Maleate]
Result: 35.5 ng/mL

Query: Fill in Cmax for record COc1ccc2c3c(c4cc(OC)c(OC)cc4c2c1)CN1CCC[C@H]1C3 [(+)-13a-(S)-deoxytylophorinine, reference compound]
Result: 41.5 ng/mL

Query: Fill in Cmax for record COc1ccc2c3c(c4cc(OC)c(OC)cc4c2c1)CN1CCC[C@H]1C3.O=C(O)C(O)C(O)C(=O)O [Tartrate, (+)-13a-(S)-deoxytylophorinine Tartrate]
Result: 34.2 ng/mL

Query: Fill in Cmax for record COc1ccc2c3c(c4cc(OC)c(OC)cc4c2c1)CN1CCC[C@H]1C3.O=C(O)CC(O)(CC(=O)O)C(=O)O [Citrate, (+)-13a-(S)-deoxytylophorinine Citrate]
Result: 20.1 ng/mL

====

system: H22 tumor-bearing mice; conditions: high dose × 7 d, intragastric once daily, equal moles: prototype 5.0, tartrate 7.05, maleate 6.60, citrate 7.90 mg/kg
RECORDED METRIC: Body Weight(g) Final
Value expressed in g; do not type the unit.

Query: Fill in Body Weight(g) Final for record COc1ccc2c3c(c4cc(OC)c(OC)cc4c2c1)CN1CCC[C@H]1C3.O=C(O)C(O)C(O)C(=O)O [Tartrate, (+)-13a-(S)-deoxytylophorinine Tartrate]
Result: 13.55

Query: Fill in Body Weight(g) Final for record COc1ccc2c3c(c4cc(OC)c(OC)cc4c2c1)CN1CCC[C@H]1C3 [(+)-13a-(S)-deoxytylophorinine, reference compound]
Result: 15.63

Query: Fill in Body Weight(g) Final for record COc1ccc2c3c(c4cc(OC)c(OC)cc4c2c1)CN1CCC[C@H]1C3.O=C(O)/C=C\C(=O)O [Maleate, (+)-13a-(S)-deoxytylophorinine Maleate]
Result: 13.62

Query: Fill in Body Weight(g) Final for record COc1ccc2c3c(c4cc(OC)c(OC)cc4c2c1)CN1CCC[C@H]1C3.O=C(O)CC(O)(CC(=O)O)C(=O)O [Citrate, (+)-13a-(S)-deoxytylophorinine Citrate]
Result: 14.27

====

tested on: H22 tumor-bearing mice; conditions: low dose × 7 d, intragastric once daily, equal moles: prototype 2.5, tartrate 3.53, maleate 3.30, citrate 3.95 mg/kg
For each of the molecules below, state its Body Weight(g) Final.
Value expressed in g; do not type the unit.

Query: Fill in Body Weight(g) Final for record COc1ccc2c3c(c4cc(OC)c(OC)cc4c2c1)CN1CCC[C@H]1C3.O=C(O)C(O)C(O)C(=O)O [Tartrate, (+)-13a-(S)-deoxytylophorinine Tartrate]
Result: 19.76

Query: Fill in Body Weight(g) Final for record COc1ccc2c3c(c4cc(OC)c(OC)cc4c2c1)CN1CCC[C@H]1C3.O=C(O)CC(O)(CC(=O)O)C(=O)O [Citrate, (+)-13a-(S)-deoxytylophorinine Citrate]
Result: 21.01

Query: Fill in Body Weight(g) Final for record COc1ccc2c3c(c4cc(OC)c(OC)cc4c2c1)CN1CCC[C@H]1C3 [(+)-13a-(S)-deoxytylophorinine, reference compound]
Result: 23.31

Query: Fill in Body Weight(g) Final for record COc1ccc2c3c(c4cc(OC)c(OC)cc4c2c1)CN1CCC[C@H]1C3.O=C(O)/C=C\C(=O)O [Maleate, (+)-13a-(S)-deoxytylophorinine Maleate]
Result: 23.79
